tested on: GM-CSF induced STAT5 phosphorylation mediated by the JAK2/JAK2 homdimeric complex; test: GM-CSF Induced pSTAT5 in Human PBMC; details: Homo sapiens, PBMC, 20 min, read-out: PBMC_GMCSF_pSTAT5 IC50, human PBMC; GM-CSF 5 ng/mL for 20 minutes; pSTAT5
ATTRIBUTE_MEASURED: IC50

Guide cases for IC50, answers given:
q: Give the measured IC50 of CNc1cc(Nc2cc(Cl)cn([C@@H]3CCCN(C)C3)c2=O)nc2c(C(=O)NC3CC3)cnn12 .
a: > 50 µM

q: Give the measured IC50 of CNc1cc(Nc2cccn(-c3cc(C)on3)c2=O)nc2c(C(=O)NC3CCC3)cnn12 .
a: > 12.5 µM

q: Give the measured IC50 of CNc1cc(Nc2cccn([C@H]3[C@@H]4COC[C@@H]43)c2=O)nc2c(C(=O)N[C@@H]3C[C@@H]3F)cnn12 .
a: > 50 µM

Please supply IC50 for each of the following items, keeping them in order.
1. CNc1cc(Nc2cc(F)cc(F)c2F)nc2c(C(=O)NC3CC3)cnn12
2. CNc1cc(Nc2cccn(C3CCC4(CC3)OCCO4)c2=O)nc2c(C(=O)N[C@@H]3C[C@@H]3F)cnn12
3. CNc1cc(Nc2cccc(-c3cn(C)nc3F)n2)nc2c(C(=O)N[C@@H]3C[C@@H]3F)cnn12
4. CNc1cc(Nc2cc(F)cnc2OC(C)C)nc2c(C(=O)N[C@H]3C[C@H]3F)cnn12
5. CNc1cc(Nc2cccn(-c3nc(C)co3)c2=O)nc2c(C(=O)N[C@H]3C[C@H]3F)cnn12

a:
1: > 50 µM; 2: > 50 µM; 3: > 50 µM; 4: > 50 µM; 5: > 50 µM
